test system: RXF 393 renal; assay: NCI tumour cell line growth inhibition, 48 h; in the data active = GI50 below about 0.43 µM; inactive = the rest
Outcomes: true (1) = active, false (0) = inactive

[
  {
    "compound": "CC1OC2CC(=O)OC2C2=C1C(=O)c1c(O)cccc1C2=O (stereo not drawn)",
    "assigned label": "true (1)"
  },
  {
    "compound": "O=C(Nc1ccc(OS(=O)(=O)c2ccccc2)cc1)C12CC3CC(CC(C3)C1)C2",
    "assigned label": "false (0)"
  },
  {
    "compound": "Cc1c2cccnc2c(C)c2c1c1cc(CO)ccc1n2C",
    "assigned label": "false (0)"
  }
]

* * *

tested on: SK-MEL-2 melanoma; assay: NCI tumour cell line growth inhibition, 48 h
Measured TGI accompanies every entry in the list below.

[
  {
    "compound": "CS(=O)(=O)Nc1ccc(N2Cc3cnc4ccc5[nH]ccc2c5c34)cc1",
    "TGI": "31.7 µM"
  },
  {
    "compound": "COC(=O)c1cc2c(cc1O)[C@@H](NC(C)=O)CCc1cc(OC)c(OC)c(OC)c1-2",
    "TGI": "0.0371 µM"
  },
  {
    "compound": "O=C1NC(=Nc2ccccc2)S/C1=C\\c1ccc2ncccc2c1",
    "TGI": "> 25 µM"
  },
  {
    "compound": "Cc1cc(Br)cc(C)c1NC(=O)C(=O)C(C(=O)c1ccc2ccccc2c1)C1OC(=O)c2ccccc21 (stereo not given)",
    "TGI": "34.5 µM"
  },
  {
    "compound": "O=C1OC[C@@H]2Cc3cc4c(cc3[C@H](c3ccc5c(c3)OCO5)[C@@H]12)OCO4",
    "TGI": "> 25 µM"
  },
  {
    "compound": "Cn1c(=O)c2c(nc(Nc3cc(=O)[nH]c(=O)[nH]3)n2Cc2ccccc2)n(C)c1=O",
    "TGI": "> 100 µM"
  },
  {
    "compound": "Nc1nc(Cl)c(N)c(NC23CC4CC(CC(C4)C2)C3)n1",
    "TGI": "1.16 µM"
  },
  {
    "compound": "CC(=O)Nc1cc(C(=O)Nc2cc(C(=O)N3CC(CCl)c4c3cc(N)c3ccccc43)nn2C)nn1C (stereo not given)",
    "TGI": "0.427 µM"
  },
  {
    "compound": "Cc1cc(C)c(S(=O)(=O)N2CCCN(S(=O)(=O)c3c(C)cc(C)cc3C)OCCCON(S(=O)(=O)c3c(C)cc(C)cc3C)CCCN(S(=O)(=O)c3c(C)cc(C)cc3C)OCCCO2)c(C)c1",
    "TGI": "> 100 µM"
  },
  {
    "compound": "C=CC(Br)(CBr)CCC(Cl)C(C)C (stereo not given)",
    "TGI": "3.92 µM"
  },
  {
    "compound": "O=C(O/N=C1/CCCC/C1=C\\c1ccccc1)c1ccccc1",
    "TGI": "> 100 µM"
  },
  {
    "compound": "CC1CC=CC(O)C1 (stereo not given)",
    "TGI": "> 100 µM"
  },
  {
    "compound": "Cc1cc2nc3c(C#N)c(-c4ccccc4)cc(Nc4ccc(Cl)cc4)n3c2cc1C",
    "TGI": "> 100 µM"
  },
  {
    "compound": "CC1OC(n2cc(F)c(=O)[nH]c2=O)C=CC1O (stereo not given)",
    "TGI": "> 100 µM"
  },
  {
    "compound": "COc1ccc(N=C2SC(=N/N=c3\\sc4ccccc4n3C)SC2=Nc2ccc(OC)cc2)cc1",
    "TGI": "> 100 µM"
  },
  {
    "compound": "CN(c1ccc(Cl)cc1)S(=O)(=O)c1ccc([N+](=O)[O-])cc1",
    "TGI": "> 100 µM"
  },
  {
    "compound": "COC(=O)C(C(=O)C(=O)Nc1cccc(OC)c1)c1cnc2ccccc2n1 (stereo not given)",
    "TGI": "> 100 µM"
  },
  {
    "compound": "CCOc1nc(-c2ccccc2)cc2c(O)c(-c3nnco3)[nH]c(=O)c12",
    "TGI": "> 46.9 µM"
  },
  {
    "compound": "CN1C(=O)N/C(=C\\c2ccc(S(=O)(=O)NN)cc2)C1=O",
    "TGI": "> 100 µM"
  },
  {
    "compound": "O=C(O)c1nc(-c2ccccc2)ncc1-c1nnnn1-c1ccccc1",
    "TGI": "> 100 µM"
  }
]
